- system: UniProtKB P08913
- Sequence (P08913 whole entry): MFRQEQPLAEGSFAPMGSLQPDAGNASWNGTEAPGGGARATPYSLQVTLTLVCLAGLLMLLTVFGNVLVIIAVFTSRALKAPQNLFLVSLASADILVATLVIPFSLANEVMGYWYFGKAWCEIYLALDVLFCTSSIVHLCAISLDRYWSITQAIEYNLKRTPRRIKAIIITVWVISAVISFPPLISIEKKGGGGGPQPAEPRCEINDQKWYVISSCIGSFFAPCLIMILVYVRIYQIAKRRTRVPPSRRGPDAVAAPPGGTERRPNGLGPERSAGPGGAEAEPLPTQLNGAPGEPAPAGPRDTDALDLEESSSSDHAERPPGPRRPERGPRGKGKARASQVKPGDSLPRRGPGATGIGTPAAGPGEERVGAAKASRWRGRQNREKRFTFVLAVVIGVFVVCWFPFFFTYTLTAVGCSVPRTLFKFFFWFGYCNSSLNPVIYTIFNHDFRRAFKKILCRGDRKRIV
Below, each entry is listed alongside its reported log10 Ki.
recorded_metric: log10 Ki (log10 of the value in nM)

{"molecule": "CN1C[C@H](Cn2ccnc2-c2ccccc2)C[C@@H]2c3cccc4[nH]c(Br)c(c34)C[C@H]21 [BAM-1303]", "log10 Ki": 1.26}
{"molecule": "COc1cccc(OC)c1OCCNCC1Oc2ccccc2OC1c1ccccc1 (stereo not given) [NSC_185453]", "log10 Ki": 0.54}
{"molecule": "CC(C)=CCOc1ccc(Cl)c2c1CCN(C)CC2 [SK&F-104078]", "log10 Ki": 1.48}
{"molecule": "O=C1NCN(c2ccccc2)C12CCN(CC1COc3ccccc3O1)CC2 (stereo not given)", "log10 Ki": 1.45}
{"molecule": "COc1ccccc1N1CCN(CCC2C(=O)c3ccccc3C(C)(C)C2=O)CC1 (stereo not given) [NSC_122211]", "log10 Ki": 2.57}
